Target Or System: T1, huCD33-G69-Fc recombinant protein (human, UniProt P20138 18-259);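 note: biolayer interferometry: scFvs captured from periplasmic extracts on anti-V5-loaded streptavidin biosensors, antigen association for 2 min, buffer dissociation for 5 min, 1:1 Langmuir fit giving off-rate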
T1 construct: extracellular domain; also called CD33 R69G
T1 sequence (P20138 18-259 R69G): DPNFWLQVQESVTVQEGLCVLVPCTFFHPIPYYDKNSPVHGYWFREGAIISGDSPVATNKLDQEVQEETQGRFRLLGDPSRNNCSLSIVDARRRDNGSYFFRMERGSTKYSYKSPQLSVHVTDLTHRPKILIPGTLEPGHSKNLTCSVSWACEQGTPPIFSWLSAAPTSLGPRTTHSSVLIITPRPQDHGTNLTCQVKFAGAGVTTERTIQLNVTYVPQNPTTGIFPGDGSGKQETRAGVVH
Assay Info: BLI
Readout Type: binding result

{"Binder": "Polypeptide No. 114 (scFv, V domains shown, scFv) VH: QVQLVQSGAEVKKPGASVKVSCKASGGTFSKYAISWVRQAPGQGLEWMGWMNPNSGNTGYAQKFQGRVTMTRDTSTSTVYMELSSLRSEDTAVYYCARDQGLTGYFDLWGRGTLVTVSS VL: DIQMTQSPSSLSASVGDRVTITCRASQSIGNWLAWYQQKPGKAPKLLIYKASSLESGVPSRFSGSGSGTDFTLTISSLQPEDFATYYCQQSYNTPPTFGPGTKVDIKR", "Measurement": "binds"}
{"Binder": "Polypeptide No. 112 (scFv, V domains shown, scFv) VH: QVQLVQSGAEVKKPGSSVKVSCKASGSTLTGYDIHWVRQAPGQGLEWMGGIIPFLGTASYAQEFQGRVTITADESTSTAYMELSSLRSEDTAVYYCARGGGSGYDLDYWGQGTLVTVSS VL: DIQMTQSPSSLSASVGDRVTITCRSSESISSWLAWYQQKPGKAPKLLIYSASTLQSGVPSRFSGSGSGTDFTLTISSLQPEDFATYYCQQSYSTPVTFGQGTRLEIKR", "Measurement": "binds"}
{"Binder": "Polypeptide No. 138 (scFv, V domains shown, scFv) VH: QVQLVQSGAEVKKPGASVKVSCKASGYTFSSYDMHWVRQAPGQGLEWMGVINPGGGYTNYAQKFQGRVTMTRDTSTSTVYMELSSLRSEDTAVYYCARDEGWELLLDYWGQGTLVTVSS VL: EIVMTQSPATLSVSPGERATLSCRASQSVGSNLAWYQQKPGQAPRLLIYGASTRATGIPARFSGSGSGTEFTLTISSLQSEDFAVYYCQQSHSLPPTFGQGTRLEIKR", "Measurement": "binds"}
